molecular target: PARK7 (Homo sapiens, UniProt Q99497); assay: High-throughput screen of the crude compound library, PARK7 fluorescence polarization (FP) assay with FP reagent JYQ-107; assay type: biochemical; settings: 1.25 µM, crude compound library, FP reagent JYQ-107; read-out: HTS FP assay %Inhibition (1.25 µM)
Sequence (Q99497 whole entry): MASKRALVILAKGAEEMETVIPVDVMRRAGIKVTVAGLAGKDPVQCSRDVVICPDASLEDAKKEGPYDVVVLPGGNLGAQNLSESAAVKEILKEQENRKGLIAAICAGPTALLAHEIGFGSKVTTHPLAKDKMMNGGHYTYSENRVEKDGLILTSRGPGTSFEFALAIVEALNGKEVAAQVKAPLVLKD
observable: inhibition at 1.25 µM (%)

compound	inhibition at 1.25 µM / %
COc1ccc(C)cc1C(=O)N1CCc2nc(NC(=O)[C@@H]3CCN(C#N)C3)sc2C1 [compound 395]	84.8
CC(=O)C(=O)N1CCc2nc(NC(=O)[C@@H]3CCN(C#N)C3)sc2C1 [compound 466]	58.5
CCCCNc1ccc(C(=O)N2CCc3nc(NC(=O)[C@@H]4CCN(C#N)C4)sc3C2)cc1 [compound 434]	81.3
CC(C)C(=O)N1CCc2nc(NC(=O)[C@@H]3CCN(C#N)C3)sc2C1 [compound 392]	63
CC(=O)NCC(=O)N1CCc2nc(NC(=O)[C@@H]3CCN(C#N)C3)sc2C1 [compound 389]	71.7
N#CN1CC[C@@H](C(=O)Nc2nc3c(s2)CN(C(=O)Cc2ccccc2[N+](=O)[O-])CC3)C1 [compound 400]	80.8
CN(C)c1ccc(C(=O)N2CCc3nc(NC(=O)[C@@H]4CCN(C#N)C4)sc3C2)cc1 [compound 449]	82.9
COc1ccccc1-c1cc(C(=O)N2CCc3nc(NC(=O)[C@@H]4CCN(C#N)C4)sc3C2)n[nH]1 [compound 452]	84.6
N#CN1CC[C@@H](C(=O)Nc2nc3c(s2)CN(C(=O)c2ccc(Cn4ccccc4=O)o2)CC3)C1 [compound 366]	79.5
